Tested on: KBM-5 (human chronic myelogenous leukemia)
Test: MTT cancer cell growth inhibition
Type: cell-based
Conditions: Homo sapiens, KBM5, 72 h, MTT, 72 hours incubation, KBM-5 cells; read-out: GI50 KBM-5
READOUT LABEL: GI50 (nM)

SAMPLE SMILES: C/C=C1\NC(=O)c2ccc(F)c(n2)CNC(=O)C[C@@H](/C=C/CCSC(C)=O)OC(=O)[C@H](C(C)C)NC1=O
EXPERIMENTAL SYSTEM: KBM-5 (human chronic myelogenous leukemia)
ASSAY VALUE: 76
//
SAMPLE SMILES: C/C=C1\NC(=O)c2cccc(n2)CNC(=O)C[C@@H](/C=C/CCSC(C)=O)OC(=O)[C@H](CCCCNC(=O)OCC2c3ccccc3-c3ccccc32)NC1=O
EXPERIMENTAL SYSTEM: KBM-5 (human chronic myelogenous leukemia)
ASSAY VALUE: 82
//
SAMPLE SMILES: C/C=C1\NC(=O)c2cccc(n2)CNC(=O)C[C@@H](/C=C/CCSC(=O)CCCCCCC)OC(=O)[C@H](CSCC)NC1=O
EXPERIMENTAL SYSTEM: KBM-5 (human chronic myelogenous leukemia)
ASSAY VALUE: 56
//
SAMPLE SMILES: C/C=C1\NC(=O)c2nc(ccc2F)CNC(=O)C[C@@H](/C=C/CCS)OC(=O)[C@H](CCCCN)NC1=O
EXPERIMENTAL SYSTEM: KBM-5 (human chronic myelogenous leukemia)
ASSAY VALUE: 18
//
SAMPLE SMILES: C/C=C1\NC(=O)c2ccc(F)c(n2)CNC(=O)C[C@@H](/C=C/CCSC(=O)CCCCCCC)OC(=O)[C@H](C)NC1=O
EXPERIMENTAL SYSTEM: KBM-5 (human chronic myelogenous leukemia)
ASSAY VALUE: 91
//
SAMPLE SMILES: C/C=C1\NC(=O)c2ccc(F)c(n2)CNC(=O)C[C@@H](/C=C/CCS)OC(=O)[C@H](C(C)C)NC1=O
EXPERIMENTAL SYSTEM: KBM-5 (human chronic myelogenous leukemia)
ASSAY VALUE: 11
//
SAMPLE SMILES: C/C=C1\NC(=O)c2cccc(n2)CCNC(=O)C[C@@H](/C=C/CCS)OC(=O)[C@H](C(C)C)NC1=O
EXPERIMENTAL SYSTEM: KBM-5 (human chronic myelogenous leukemia)
ASSAY VALUE: 33
//
SAMPLE SMILES: C/C=C1\NC(=O)c2ccc(C)c(n2)CNC(=O)C[C@@H](/C=C/CCSC(C)=O)OC(=O)[C@H](Cc2ccccc2)NC1=O
EXPERIMENTAL SYSTEM: KBM-5 (human chronic myelogenous leukemia)
ASSAY VALUE: 51
//
SAMPLE SMILES: C/C=C1\NC(=O)c2nc(ccc2F)CNC(=O)C[C@@H](/C=C/CCSC(=O)CC)OC(=O)[C@H](C(C)C)NC1=O
EXPERIMENTAL SYSTEM: KBM-5 (human chronic myelogenous leukemia)
ASSAY VALUE: 94
//
SAMPLE SMILES: C/C=C1\NC(=O)c2cc(F)cc(n2)CNC(=O)C[C@@H](/C=C/CCSC(=O)CC)OC(=O)[C@H](C(C)C)NC1=O
EXPERIMENTAL SYSTEM: KBM-5 (human chronic myelogenous leukemia)
ASSAY VALUE: 91
//
SAMPLE SMILES: C/C=C1\NC(=O)c2ccc(SC)c(n2)CNC(=O)C[C@@H](/C=C/CCSC(C)=O)OC(=O)[C@@H](C)NC1=O
EXPERIMENTAL SYSTEM: KBM-5 (human chronic myelogenous leukemia)
ASSAY VALUE: 43
//
SAMPLE SMILES: C=C1NC(=O)c2cccc(n2)CNC(=O)C[C@@H](/C=C/CCS)OC(=O)[C@H](C)NC1=O
EXPERIMENTAL SYSTEM: KBM-5 (human chronic myelogenous leukemia)
ASSAY VALUE: 69
//
SAMPLE SMILES: C/C=C1\NC(=O)c2cccc(n2)CNC(=O)C[C@@H](/C=C/CCSC(C)=O)OC(=O)[C@H](CCCCN)NC1=O
EXPERIMENTAL SYSTEM: KBM-5 (human chronic myelogenous leukemia)
ASSAY VALUE: 95
//
SAMPLE SMILES: C/C=C1\NC(=O)c2nc(ccc2F)CNC(=O)C[C@@H](/C=C/CCSC(=O)CCCCCCC)OC(=O)[C@H](CC)NC1=O
EXPERIMENTAL SYSTEM: KBM-5 (human chronic myelogenous leukemia)
ASSAY VALUE: 99
//
SAMPLE SMILES: C=C1NC(=O)c2cccc(n2)CNC(=O)C[C@@H](/C=C/CCSC(C)=O)OC(=O)[C@H](C)NC1=O
EXPERIMENTAL SYSTEM: KBM-5 (human chronic myelogenous leukemia)
ASSAY VALUE: 73
//
SAMPLE SMILES: C/C=C1\NC(=O)c2cccc(n2)CNC(=O)C[C@@H](/C=C/CCSC(=O)CCCCCCC)OC(=O)[C@H](CCSC)NC1=O
EXPERIMENTAL SYSTEM: KBM-5 (human chronic myelogenous leukemia)
ASSAY VALUE: 71
//
SAMPLE SMILES: C/C=C1\NC(=O)c2cc(F)cc(n2)CNC(=O)C[C@@H](/C=C/CCSC(C)=O)OC(=O)[C@H](CCCCNC(=O)OCC2c3ccccc3-c3ccccc32)NC1=O
EXPERIMENTAL SYSTEM: KBM-5 (human chronic myelogenous leukemia)
ASSAY VALUE: 94

* * *

System: A549 (human lung cancer cells)
Experiment: MTT cancer cell growth inhibition
Type: cell-based
Settings: Homo sapiens, A549, 72 h, MTT, 72 hours incubation; read-out: GI50 A54
Please assign rule not met whenever GI50 is at or above 60 nM, and rule met whenever it is below.

SAMPLE SMILES: C=C1NC(=O)c2ccc(F)c(n2)CNC(=O)C[C@@H](/C=C/CCS)OC(=O)[C@H](C(C)C)NC1=O
CLASS NAME: rule met
--
SAMPLE SMILES: C/C=C1\NC(=O)c2nccc(n2)CNC(=O)C[C@@H](/C=C/CCSC(C)=O)OC(=O)[C@H](C)NC1=O
CLASS NAME: rule not met
--
SAMPLE SMILES: C/C=C1\NC(=O)c2cc(F)cc(n2)CNC(=O)C[C@@H](/C=C/CCSC(=O)CCCCCCC)OC(=O)[C@H](CC)NC1=O
CLASS NAME: rule met
--
SAMPLE SMILES: C/C=C1\NC(=O)c2ccc(F)c(n2)CNC(=O)C[C@@H](/C=C/CCS)OC(=O)[C@H](CCCCNC(=O)OCC2c3ccccc3-c3ccccc32)NC1=O
CLASS NAME: rule not met
--
SAMPLE SMILES: C/C=C1\NC(=O)c2nc(ccc2F)CNC(=O)C[C@@H](/C=C/CCSC(C)=O)OC(=O)[C@H](CCCCNC(=O)OCC2c3ccccc3-c3ccccc32)NC1=O
CLASS NAME: rule met
--
SAMPLE SMILES: C/C=C1\NC(=O)c2nc(ccc2F)CNC(=O)C[C@@H](/C=C/CCSC(C)=O)OC(=O)[C@H](Cc2ccc(O)cc2)NC1=O
CLASS NAME: rule met

* * *

Documented GI50 across a set of compounds
System: Hela (human cervical cancer cells)
Assay: MTT cancer cell growth inhibition
Assay type: cell-based
Conditions: Homo sapiens, HeLa, 72 h, MTT, 72 hours incubation; read-out: GI50 Hela
READOUT LABEL: GI50

SAMPLE SMILES: C/C=C1\NC(=O)c2cc(F)cc(n2)CNC(=O)C[C@@H](/C=C/CCSC(C)=O)OC(=O)[C@H](C(C)C)NC1=O
READOUT LABEL: GI50
ASSAY VALUE: 60 nM

SAMPLE SMILES: C/C=C1\NC(=O)c2cc(F)cc(n2)CNC(=O)C[C@@H](/C=C/CCS)OC(=O)[C@H](CC)NC1=O
READOUT LABEL: GI50
ASSAY VALUE: 60 nM

SAMPLE SMILES: C=C1NC(=O)c2cccc(n2)CNC(=O)C[C@@H](/C=C/CCSC(C)=O)OC(=O)[C@H](C(C)C)NC1=O
READOUT LABEL: GI50
ASSAY VALUE: 60 nM

* * *

Documented GI50 across a set of compounds
Tested on: BGC-823 (human gastric cancer cells)
Experiment: MTT cancer cell growth inhibition
Assay type: cell-based
Conditions: Homo sapiens, BGC-823, 72 h, BGC-823 cells, MTT, 72 hours incubation; read-out: GI50 BG

SAMPLE SMILES: C/C=C1\NC(=O)c2nc(ccc2SC)CNC(=O)C[C@@H](/C=C/CCSC(=O)CCCCCCC)OC(=O)[C@H](CC)NC1=O
UNIT OF MEASURE: nM
GI50: 70

SAMPLE SMILES: C=C1NC(=O)c2ccc(SC)c(n2)CNC(=O)C[C@@H](/C=C/CCSC(C)=O)OC(=O)[C@H](C)NC1=O
UNIT OF MEASURE: nM
GI50: 60

SAMPLE SMILES: C/C=C1\NC(=O)c2nc(ccc2SC)CNC(=O)C[C@@H](/C=C/CCSC(C)=O)OC(=O)[C@H](Cc2ccc(O)cc2)NC1=O
UNIT OF MEASURE: nM
GI50: 50

src = patent US10065990B2
